System: CAKI-1 renal
Experiment: NCI tumour cell line growth inhibition, 48 h
Each item that follows carries a reported TGI.
Give the number; µM is assumed, so skip it.

                              smiles_record  target_entity  unit_string  recorded_number
0  Cc1cccc2c1O/C(=C\c1ccc([N+](=O)[O-])o1)C2=O   CAKI-1 renal           µM              1.8
1  O=C(Nc1cccc(O)c1)c1cccc(NC2=C(Cl)C(=O)N(Cc3ccccc3)C2=O)c1   CAKI-1 renal           µM            0.806
2            O=C1/C(=C/c2ccccc2)CCc2ccccc21   CAKI-1 renal           µM             32.7

q: Give the measured TGI of "O=[N+]([O-])/C=C\c1c[nH]c2ccc(OCc3ccccc3)cc12" .
a: 53.5

q: Give the measured TGI of "Cc1cnoc1NS(=O)(=O)c1ccc(Nc2nnc(/C=C/c3c(O)ccc4ccccc34)c(=O)n2N)cc1" .
a: 88.9

----------
Test system: SK-MEL-2 melanoma
Assay: NCI tumour cell line growth inhibition, 48 h
Property: TGI (µM)
Give the number; µM is assumed, so skip it.

>>> df
                                   compound  property  unit_string  recorded_number
0  C1=C(c2ccccc2)C(c2ccc(OCCN3CCCCC3)cc2)Oc2ccccc21 (configuration not stated)       TGI           µM             4.33

q: Give the measured TGI of "C[C@H](CCC(=O)O)[C@H]1CC[C@H]2[C@@H]3[C@H](O)C[C@@H]4C[C@H](O)CC[C@]4(C)[C@H]3CC[C@]12C" .
a: 53.5

q: Give the measured TGI of "Cc1ccc2c(c1)O/C(=C\c1ccc([N+](=O)[O-])o1)C2=O" .
a: 3.72

q: Give the measured TGI of "CCCCCOC(=O)c1cc2cc(CCl)ccc2oc1=O" .
a: 2.08

q: Give the measured TGI of NC(=S)N1N=C(c2ccccc2O)CC1c1ccccc1 (configuration not stated) .
a: 20.3

q: Give the measured TGI of "CC(=O)c1ccc2c(c1)N(CCCN1CCN(CCO)CC1)c1ccccc1C2" .
a: 33.5

----------
Each item that follows carries a reported TGI.
Tested on: MDA-N
Experiment: NCI tumour cell line growth inhibition, 48 h
Where a SMILES comes first, the peptide text is derived from it.

// known answers, use as guide
Compound	Result
C1=C(c2ccccc2)SC=C(c2ccccc2)S1	36.5 µM
O=S(=O)(O)/C(=C\c1ccccc1)c1ccccc1 (tested in a mixture with another compound)	> 100 µM

q: For the record "Cc1cc(=O)[nH]c(/N=C(\N)Nc2ccc(Cl)cc2)n1" , what value of TGI is listed for MDA-N?
a: > 100 µM

q: For the record "Clc1ccc(C=NC23CC4CC(CC(C4)C2)C3)cc1Cl" , what value of TGI is listed for MDA-N?
a: > 10 µM

q: For the record "Cc1nc2ncn3c(c-2c1Cc1ccccc1)NC=C(O)N3" , what value of TGI is listed for MDA-N?
a: > 100 µM

q: For the record CC(C)(C)[Si](C)(C)OCC1C=CC(n2cnc3c(N)ncnc32)O1 (stereo not drawn) , what value of TGI is listed for MDA-N?
a: 85.9 µM

q: For the record "C/C(=N\Nc1nc2ccccc2o1)c1cc(C)ncn1" , what value of TGI is listed for MDA-N?
a: > 100 µM

q: For the record CCC(C)C(NC(=O)C1CCCN1C(=O)C(CC(C)C)NC(=O)C(CC(C)C)NC(=O)C(N)CC(C)C)C(=O)NC(C(=O)NCC(=O)NC(CC(N)=O)C(=O)NC(CC(C)C)C(=O)NC(CC(C)C)C(=O)NC(CC(C)C)C(N)=O)C(C)C (stereo not drawn) (H-LLLPIVGNLLL-NH2; configuration not given here) , what value of TGI is listed for MDA-N?
a: > 50 µM

q: For the record "O=C(O)c1cscc1Cc1cccs1" , what value of TGI is listed for MDA-N?
a: > 100 µM

q: For the record "CCOc1ccc2ccc3cccnc3c2n1" , what value of TGI is listed for MDA-N?
a: > 100 µM

q: For the record CCOC(=O)CCC(NC(=O)c1ccc(Nc2cnc3ccc(C(F)(F)F)cc3n2)cc1)C(=O)OCC (stereo not drawn) , what value of TGI is listed for MDA-N?
a: > 100 µM
